This collection of values is drawn from ChEMBL document CHEMBL1140924.

# measurementTarget: Orexin receptor type 2 (Homo sapiens)
# Sequence (O43614 whole entry): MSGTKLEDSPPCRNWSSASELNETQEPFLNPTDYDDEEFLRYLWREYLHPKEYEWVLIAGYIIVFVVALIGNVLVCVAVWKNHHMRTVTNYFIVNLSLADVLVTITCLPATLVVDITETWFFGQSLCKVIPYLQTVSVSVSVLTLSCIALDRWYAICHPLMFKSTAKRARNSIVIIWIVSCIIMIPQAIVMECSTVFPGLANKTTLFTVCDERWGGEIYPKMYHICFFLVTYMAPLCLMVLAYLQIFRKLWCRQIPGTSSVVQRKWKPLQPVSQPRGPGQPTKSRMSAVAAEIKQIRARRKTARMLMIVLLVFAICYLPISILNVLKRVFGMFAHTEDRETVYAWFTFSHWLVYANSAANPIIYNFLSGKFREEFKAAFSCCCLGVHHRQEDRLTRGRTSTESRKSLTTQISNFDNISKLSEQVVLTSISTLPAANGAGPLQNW
# experimentNotes: Inhibition of OX2 receptor
pIC50: −log10 of the molar value.
readoutKind: pIC50

Consider the reported pIC50 for these molecules:
INSERT INTO assay_data (molecule, readoutkind, experimentalresult) VALUES
  ('COc1ccc(CC2c3cc(OC)c(OC)cc3CCN2CC(=O)NCc2ccncc2)cc1OC (racemic)', 'pIC50', 5.00),
  ('COc1cccc(CC2c3cc(OC)c(OC)cc3CCN2CC(=O)NC2CCc3ccccc32)c1 (stereo not drawn)', 'pIC50', 5.25),
  ('COc1cc2c(cc1OC)C(Cc1ccc(Cl)c(Cl)c1)N(CC(=O)NCc1ccccc1)CC2 (stereo not drawn)', 'pIC50', 6.55),
  ('COc1ccc(CC2c3cc(OC)c(OC)cc3CCN2CC(=O)NCc2ccccn2)cc1OC (racemic)', 'pIC50', 5.00),
  ('COc1ccc(CC2c3cc(OC)c(OC)cc3CCN2C(C(=O)Nc2ccc3c(c2)OCO3)c2ccccc2)cc1OC (stereo not drawn)', 'pIC50', 5.74);

(1) COc1cc2c(cc1OC)C(CCc1ccc(F)c(F)c1)N(C(C(=O)NCC1CC1)c1ccccc1)CC2 (stereo not drawn)
(2) COc1ccc(C[C@H]2c3cc(OC)c(OC)cc3CCN2CC(=O)NCCc2ccccc2)cc1OC
(3) COc1cc2c(cc1OC)C(Cc1ccc3ccccc3c1)N(C(C(=O)NC1CC1)c1ccccc1)CC2 (stereo not drawn)
Sort the 3 molecules by pIC50; largest first, smallest last. Please express your ranking as an ordered list of the labels.
1, 3, 2

###

# measurementTarget: Orexin/Hypocretin receptor type 1 (Homo sapiens, UniProt O43613)
# Sequence (O43613 whole entry): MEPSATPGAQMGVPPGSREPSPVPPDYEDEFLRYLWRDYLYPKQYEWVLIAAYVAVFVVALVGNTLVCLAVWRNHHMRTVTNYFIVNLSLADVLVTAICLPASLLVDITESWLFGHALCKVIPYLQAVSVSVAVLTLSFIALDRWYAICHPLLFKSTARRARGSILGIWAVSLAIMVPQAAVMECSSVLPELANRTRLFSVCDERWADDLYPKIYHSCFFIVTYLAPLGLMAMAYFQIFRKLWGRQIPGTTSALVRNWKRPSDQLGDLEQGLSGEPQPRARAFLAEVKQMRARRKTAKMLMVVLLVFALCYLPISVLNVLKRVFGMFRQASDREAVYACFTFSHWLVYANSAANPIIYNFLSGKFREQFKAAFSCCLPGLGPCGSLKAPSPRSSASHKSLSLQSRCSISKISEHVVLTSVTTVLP
readoutKind: Ki (nM)

(a) COc1ccccc1NC(=O)N[C@H]1COC(C)(C)O[C@H]1c1ccccc1
(b) Cc1cc(Br)ccc1NC(=O)N[C@H]1COC(C)(C)O[C@H]1c1ccccc1
Which shows the larger Ki value: a or b ? Write down the label attached to your selection.
a
(a: 2510 nM, b: 39.8 nM)

(P) CC1(C)OC[C@H](NC(=O)Nc2ccccc2C(F)(F)F)[C@H](c2ccccc2)O1
(Q) CC1(C)OC[C@H](NC(=O)Nc2ccccc2)[C@H](c2ccccc2)O1
(R) Cc1ccc(Cl)c(NC(=O)N[C@H]2COC(C)(C)O[C@H]2c2ccccc2)c1
# ascending order, key=Ki Please express your ranking as an ordered list of the labels.
R, P, Q
(R: 63.1 nM, P: 100 nM, Q: 501 nM)

(a) CC1(C)OC[C@H](NC(=O)Nc2cc(Cl)ccc2Cl)[C@H](c2ccccc2)O1
(b) CC1(C)OC[C@H](NC(=O)Nc2ccccc2F)[C@H](c2ccccc2)O1
Just tell me: smaller Ki value, a or b ? Write down the label attached to your selection.
a

###

# experimentNotes: Selectivity of Ki for OX1 receptor to Ki for OX2 receptor
readoutKind: Ratio

Consider the reported Ratio for these compounds:
INSERT INTO measurements (smilesnotation, experimentalresult) VALUES
  ('CC1(C)OC[C@H](NC(=O)Nc2cccc(Br)c2)[C@H](c2ccccc2)O1', 9),
  ('CC1(C)OC[C@H](NC(=O)Nc2ccccc2C(F)(F)F)[C@H](c2ccccc2)O1', 100),
  ('CC1(C)OC[C@H](NC(=O)Nc2cc(Cl)ccc2Cl)[C@H](c2ccccc2)O1', 80),
  ('CC1(C)OC[C@H](NC(=O)Nc2ccc(Br)cc2Cl)[C@H](c2ccccc2)O1', 900),
  ('CC1(C)OC[C@H](NC(=O)Nc2ccccc2I)[C@H](c2ccccc2)O1', 70),
  ('CC1(C)OC[C@H](NC(=O)Nc2ccc(Br)cc2)[C@H](c2ccccc2)O1', 40);

(A) CC1(C)OC[C@H](NC(=O)Nc2ccccc2)[C@H](c2ccccc2)O1
(B) Cc1cc(Br)ccc1NC(=O)N[C@H]1COC(C)(C)O[C@H]1c1ccccc1
(C) CC1(C)OC[C@H](NC(=O)Nc2ccccc2Cl)[C@H](c2ccccc2)O1
Sort the 3 compounds by Ratio; largest first, smallest last. Please express your ranking as an ordered list of the labels.
B, C, A

###

# measurementTarget: Orexin/Hypocretin receptor type 1 (Homo sapiens, UniProt O43613)
# experimentNotes: Antagonist activity at human OX1 receptor
# Assay type: functional
readoutKind: IC50 (µM)

(a) CNC1CCCC1CN[C@H](C(=O)N1CCc2cc(OC)c(OC)cc2C1)C(C)(C)C (some centres not stated)
(b) COc1cc2c(cc1OC)CN(C(=O)C(Cc1ccccc1)C(=O)c1cc(Cl)cc(Cl)c1)CC2 (racemic)
Which shows the larger IC50 value: a or b ? Write down the label attached to your selection.
b
(b: 5.3 µM, a: 3.6 µM)

###

# measurementTarget: Orexin/Hypocretin receptor type 1 (Homo sapiens, UniProt O43613)
# Sequence (O43613 whole entry): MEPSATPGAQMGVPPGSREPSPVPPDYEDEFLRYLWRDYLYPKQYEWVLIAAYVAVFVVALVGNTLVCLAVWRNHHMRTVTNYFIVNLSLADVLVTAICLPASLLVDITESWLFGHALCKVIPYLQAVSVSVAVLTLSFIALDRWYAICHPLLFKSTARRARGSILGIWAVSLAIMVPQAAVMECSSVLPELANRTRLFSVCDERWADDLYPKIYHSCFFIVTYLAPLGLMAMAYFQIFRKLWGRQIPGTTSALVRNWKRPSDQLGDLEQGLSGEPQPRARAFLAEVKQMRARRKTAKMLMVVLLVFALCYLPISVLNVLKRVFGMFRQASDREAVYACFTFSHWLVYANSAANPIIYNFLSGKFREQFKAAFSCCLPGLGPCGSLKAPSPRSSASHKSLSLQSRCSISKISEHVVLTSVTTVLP
# experimentNotes: Inhibition of OX1 receptor
readoutKind: IC50 (nM)

Consider the reported IC50 for these compounds:
INSERT INTO results (compound, measurementtarget, readoutkind, unitabbrev, experimentalresult) VALUES
  ('COc1ccc(C[C@H]2c3cc(OC)c(OC)cc3CCN2CC(=O)NCCc2ccccc2)cc1OC', 'Orexin/Hypocretin receptor type 1 (Homo sapiens, UniProt O43613)', 'IC50', 'nM', 3140),
  ('COc1ccc(CC2c3cc(OC)c(OC)cc3CCN2CC(=O)NC2CCc3ccccc32)cc1F (stereo not given)', 'Orexin/Hypocretin receptor type 1 (Homo sapiens, UniProt O43613)', 'IC50', 'nM', 127),
  ('COc1cc2c(cc1OC)C(Cc1ccc(Cl)c(Cl)c1)N(CC(=O)NCc1ccccc1)CC2 (stereo not given)', 'Orexin/Hypocretin receptor type 1 (Homo sapiens, UniProt O43613)', 'IC50', 'nM', 118),
  ('COc1ccc(CC2c3cc(OC)c(OC)cc3CCN2CC(=O)NC2CCc3ccccc32)cc1OC (racemic)', 'Orexin/Hypocretin receptor type 1 (Homo sapiens, UniProt O43613)', 'IC50', 'nM', 49),
  ('COc1ccc(CC2c3cc(OC)c(OC)cc3CCN2CC(=O)Nc2ccccc2)cc1OC (racemic)', 'Orexin/Hypocretin receptor type 1 (Homo sapiens, UniProt O43613)', 'IC50', 'nM', 4770);

(1) COc1cc2c(cc1OC)C(Cc1ccc(C)c(C)c1)N(CC(=O)NCc1ccccc1)CC2 (stereo not given)
(2) COc1cc2c(cc1OC)C(Cc1ccc3ccccc3c1)N(C(C(=O)NC1CC1)c1ccccc1)CC2 (stereo not given)
Which shows the larger IC50 value: 1 or 2 ? Write down the label attached to your selection.
2

(1) COc1cc2c(cc1OC)C(Cc1ccc(C)c(C)c1)N(CC(=O)NC1CCc3ccccc31)CC2 (stereo not given)
(2) COc1ccc(CC2c3cc(OC)c(OC)cc3CCN2CC(=O)NC2Cc3ccccc3C2)cc1OC (racemic)
(3) COc1ccc(CC2c3cc(OC)c(OC)cc3CCN2CC(=O)NCc2cccnc2)cc1OC (racemic)
(4) COCCNC(=O)C(c1ccccc1)N1CCc2cc(OC)c(OC)cc2C1Cc1ccc2ccccc2c1 (stereo not given)
Sort the 4 compounds by IC50; largest first, smallest last. Please express your ranking as an ordered list of the labels.
3, 2, 1, 4
(3: 268 nM, 2: 129 nM, 1: 44 nM, 4: 8 nM)

(I) COc1cc2c(cc1OC)C(Cc1ccc3c(c1)OCO3)N(CC(=O)NCc1ccccc1)CC2 (stereo not given)
(II) COc1cc2c(cc1OC)C(CCc1ccc(F)c(F)c1)N(C(C(=O)NCC1CC1)c1ccccc1)CC2 (stereo not given)
Just tell me: smaller IC50 value, I or II ? Write down the label attached to your selection.
II
(II: 552 nM, I: 9480 nM)

(a) COc1ccc2c(c1)C(NC(=O)CN1CCc3cc(OC)c(OC)cc3C1Cc1ccc(OC)c(OC)c1)CC2 (racemic)
(b) COc1ccc(CC2c3cc(OC)c(OC)cc3CCN2CC(=O)NC(C)c2ccccc2)cc1OC (racemic)
Just tell me: smaller IC50 value, a or b ? Write down the label attached to your selection.
a
